# ASSAY TARGET: Recombinant human c-KIT kinase (Homo sapiens (Human))
# Sequence (P10721 26-976): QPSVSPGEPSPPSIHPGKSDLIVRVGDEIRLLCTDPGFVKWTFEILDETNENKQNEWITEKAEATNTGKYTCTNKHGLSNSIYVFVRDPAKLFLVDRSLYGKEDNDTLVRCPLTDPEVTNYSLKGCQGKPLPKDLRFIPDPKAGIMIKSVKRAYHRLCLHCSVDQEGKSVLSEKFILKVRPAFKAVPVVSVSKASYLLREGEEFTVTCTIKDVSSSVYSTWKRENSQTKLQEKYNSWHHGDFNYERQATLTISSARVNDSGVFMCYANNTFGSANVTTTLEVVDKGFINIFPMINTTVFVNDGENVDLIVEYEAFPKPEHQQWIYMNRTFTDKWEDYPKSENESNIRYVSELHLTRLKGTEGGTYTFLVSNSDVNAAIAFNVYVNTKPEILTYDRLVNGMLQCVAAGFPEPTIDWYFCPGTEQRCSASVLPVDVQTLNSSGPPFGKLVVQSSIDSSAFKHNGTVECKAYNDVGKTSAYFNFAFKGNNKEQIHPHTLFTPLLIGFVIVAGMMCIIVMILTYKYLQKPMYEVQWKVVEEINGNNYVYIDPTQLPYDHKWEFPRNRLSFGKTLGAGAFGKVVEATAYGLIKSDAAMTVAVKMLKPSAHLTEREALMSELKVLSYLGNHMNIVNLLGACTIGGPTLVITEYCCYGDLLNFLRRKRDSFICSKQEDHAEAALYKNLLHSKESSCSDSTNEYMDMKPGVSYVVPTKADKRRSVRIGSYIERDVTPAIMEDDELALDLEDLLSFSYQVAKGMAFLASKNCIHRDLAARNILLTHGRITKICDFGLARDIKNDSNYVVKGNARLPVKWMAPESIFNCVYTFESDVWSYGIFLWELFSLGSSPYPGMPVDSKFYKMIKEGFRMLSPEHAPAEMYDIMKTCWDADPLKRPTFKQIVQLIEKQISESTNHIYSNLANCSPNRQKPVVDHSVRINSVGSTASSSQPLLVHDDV
# METHOD NOTES: c-KIT kinase chemiluminescence assay (ADP-Glo)
# MEASUREMENT SETUP: ATP 50 μM
pIC50: −log10 of the molar value.
VALUE TYPE: pIC50

Previously resolved entries follow.
Cc1ccc(-c2noc([C@H]3C[C@@H]3F)n2)cc1NC(=O)c1coc2ccccc12 : < 6.00
Cc1ccc(-c2noc([C@H]3C[C@@H]3F)n2)cc1NC(=O)c1cnn2ccc(N3CC4(CN(C(=O)C(F)(F)F)C4)C3)cc12 : > 7.00
Cc1ccc(-c2noc([C@H]3C[C@@H]3F)n2)cc1NC(=O)c1cnn2ccc(N3CC4(CN(C)C4)C3)cc12 : 6.00 to 7.00
Cc1ccc(-c2noc([C@H]3C[C@@H]3F)n2)cc1NC(=O)c1cnc(-c2ccccn2)o1 : < 6.00
Cc1ccc(-c2noc([C@H]3C[C@@H]3F)n2)cc1NC(=O)c1cnn2ccc(N3CC4CCC3CN4C(=O)OC(C)(C)C)cc12 (stereo partly shown) : 6.00 to 7.00
Cc1cc(F)c(-c2noc([C@H]3C[C@@H]3F)n2)cc1NC(=O)c1cnc(-c2ccc3c(cnn3C(=O)OC(C)(C)C)c2)o1 : < 6.00

Now for another entry.
Item COC(=O)N1CC(c2nc(-c3cc(NC(=O)c4cnn5ccc(N6CC7(COC7)C6)cc45)c(C)cc3F)no2)C1 has what recorded pIC50? > 7.00

// data source = patent US20250059174A1
